The measurements presented in this section are drawn from PubChem BioAssay (EPA / NIEHS).

Experiment: CCTE_Shafer_MEA_acute_LDH: CCTE's Lactate Dehydrogenase Assay for Cytotoxicity in the Neural Acute Assay, Shafer Lab (AID 2284086);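 also: active means LDH release rises above DMSO vehicle level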
Inconclusive results are not listed. The source made the active and inactive calls. The calls were made as follows: active = hit-call score of the fitted dose curve at least 0.9, where 1 is the maximum; inconclusive = response in the unintended direction; inactive = score below 0.9.

{"smiles": "Cc1cc(Cc2ccc(N)c(C)c2)ccc1N", "outcome": "inactive"}
{"smiles": "CCCC(=O)O", "outcome": "inactive"}
{"smiles": "CCc1cc(C2=C(C(=O)O)N(c3ccccc3C(F)(F)F)S(=O)(=O)c3ccccc32)cc2c1OCO2", "outcome": "inactive"}

====

Read-out: Vascular cell adhesion molecule 1 (VCAM1), VCAM1 (gene 7412)
Experiment: BSK_4H_VCAM1: BioMAP Diversity Plus: 4H Assay for Vascular cell adhesion molecule 1 (VCAM1) Biomarker Activity (AID 2283033);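 as to outcome: cell-surface VCAM-1 protein measured by ELISA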
Settings: primary human endothelial cells (HUVEC); actives raise or lower the signal
Active and inactive are the calls of the source. The calls were made as follows: active = hit-call score of the fitted dose curve at least 0.9, where 1 is the maximum; inactive = score below 0.9.
Tick one outcome: TRUE for active, FALSE for inactive

Past entries and their recorded results:
{"compound": "Cc1cc(Cc2ccc(N)c(C)c2)ccc1N", "assigned-category": "FALSE"}
{"compound": "O=C(O)c1[nH]n(-c2ccc(S(=O)(=O)O)cc2)c(=O)c1N=Nc1ccc(S(=O)(=O)O)cc1", "assigned-category": "FALSE"}
{"compound": "N[C@@H](Cc1c[nH]c2ccccc12)C(=O)O", "assigned-category": "FALSE"}
{"compound": "CC(=O)O", "assigned-category": "FALSE"}
{"compound": "CCCCCCCCCCCCCCOS(=O)(=O)O", "assigned-category": "TRUE"}
{"compound": "CCCCC(CC)CO (configuration not stated)", "assigned-category": "FALSE"}

Lab log entry: CCCCCCC(CCCCCCCCCCC(=O)OCC(COC(C)=O)OC(C)=O)OC(C)=O (configuration not stated) — outcome as called in the assay? FALSE

====

Read-out: Interleukin-1 alpha (IL1a), IL1A (gene 3552)
Test: BSK_BE3C_IL1a: BioMAP Diversity Plus: BE3C Assay for Interleukin-1 alpha (IL1a) Biomarker Activity (AID 2283016)
Conditions: primary human bronchial epithelial cells; actives raise or lower the signal
Calls of active or inactive are those of the source. Rule for the calls: active = hit-call score of the fitted dose curve at least 0.9, where 1 is the maximum; inactive = score below 0.9.
readout-type: outcome

Previously resolved entries follow.
{"smiles": "O=C1O[C@H]([C@H](O)CO)C(O)=C1O", "readout-type": "outcome", "reported": "inactive"}
{"smiles": "CN(C)C(=O)NC1(c2ccccc2)CCN(CC[C@@]2(c3ccc(F)c(F)c3)CN(C(=O)c3ccccc3)CCO2)CC1", "readout-type": "outcome", "reported": "inactive"}
{"smiles": "CC(N)=O", "readout-type": "outcome", "reported": "inactive"}
{"smiles": "CC(=O)OCC(COC(C)=O)OC(C)=O", "readout-type": "outcome", "reported": "inactive"}
{"smiles": "c1ccc2occc2c1", "readout-type": "outcome", "reported": "inactive"}

For each listed entry, give its outcome.
1. OCC(CO)n1cnc(-c2ccc(F)cc2)c1-c1ccnc(Oc2ccccc2)n1
2. Cc1occc(=O)c1O

1: inactive; 2: inactive

====

Read-out: Interleukin 6 (IL6), IL6 (gene 3569)
Experiment: LTEA_HepaRG_IL6: Life Technologies and Expression Analysis (LTEA) Assay for Interleukin 6 (IL6) using HepaRG (AID 2283509)
Settings: mRNA level, 48 h; actives raise or lower the signal
Procedure: LTEA_HepaRG is a cell based, multiplexed-readout assay that uses HepaRG, a human liver cell line, with measurements taken at 48 hours after chemical dosing on a 96-well plate.LTEA_HepaRG_IL6 is one of 102 assay component(s) measured in the LTEA HepaRG cell culture assay. It is a marker of Inflammation.Data from the assay component LTEA_HepaRG_IL6 was analyzed into 1 endpoint. […]
The source made the active and inactive calls. How the source made its calls: active means hit-call score of the fitted dose curve at least 0.9, where 1 is the maximum; inactive means score below 0.9.
Tick one outcome: label 1 (active), label 0 (inactive)

{"smiles": "CCCCOC(=O)CCCCC(=O)OCCCC", "assigned-category": "label 0"}
{"smiles": "CC(C)OC(=O)C(C)(C)Oc1ccc(C(=O)c2ccc(Cl)cc2)cc1", "assigned-category": "label 0"}
{"smiles": "CC(=O)O[C@]1(C(C)=O)CC[C@H]2[C@@H]3C=C(Cl)C4=CC(=O)[C@@H]5C[C@@H]5[C@]4(C)[C@H]3CC[C@@]21C", "assigned-category": "label 0"}
{"smiles": "Cc1ccc(C(C)(C)C)c(O)c1", "assigned-category": "label 0"}
{"smiles": "NCCOCCOCCN", "assigned-category": "label 0"}

Lab log entry: OCC(CO)n1cnc(-c2ccc(F)cc2)c1-c1ccnc(Oc2ccccc2)n1 — outcome as called in the assay? label 0

Lab log entry: CCOCCOCCO — outcome as called in the assay? label 0

Lab log entry: NC1CCCCC1 — outcome as called in the assay? label 0

Lab log entry: COc1ccc(OC(F)(F)F)cc1CN[C@H]1CCCN[C@H]1c1ccccc1 — outcome as called in the assay? label 1

Lab log entry: O=C(O)CN(CC(=O)O)CC(=O)O — outcome as called in the assay? label 0

Lab log entry: C=CCCCCCCCCCCCC — outcome as called in the assay? label 0

Lab log entry: NC=O — outcome as called in the assay? label 0

Lab log entry: COC(=O)CCCC(=O)OC — outcome as called in the assay? label 0

Lab log entry: CCCC(=O)O — outcome as called in the assay? label 0

Lab log entry: O=[Si]=O — outcome as called in the assay? label 0
